Cited source: the supplement of paper PMC10567573

# PROTOCOL_SUMMARY: protein stability index of a GFP-peptide fusion (GPS, HEK-293T) (PSI 1-6); higher = more stable;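 further: 24-mer peptide tiles fused after GFP, lentivirally expressed, FACS-sorted into six equal bins by GFP/DsRed ratio, decoded by Illumina sequencing, PSI is the read-weighted mean bin number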
# CONDITION_SUMMARY: treatment: MLN4924 1 uM, 8 h; c terminus: a fixed tail appended
RECORDED_ENDPOINT: protein stability index

SEQUENCE_CONTENT	RECORDED_ENDPOINT	REPORTED
VNADIEKVNQNQAKRCTVIGGSGF [NSDHL]	protein stability index	3.87
GSAGGLGSTLGGSSYSSCYSFGSG [KRT17]	protein stability index	3.43
GVRSREDAQGSEMVTCKSEFYHDE [GAN]	protein stability index	5.08
MKNEKLLSKASEPKYQLFVPQLVT [RNF180]	protein stability index	2.82
LRYLSSIWNILDLVVILLSIVAVG [PKD2L1]	protein stability index	3.3
QPPPPRRVTNVGSLLLTPQENESL [WASL]	protein stability index	4.66
MELLTNNLKFITDPFVCRLRHLSP [OR4A15]	protein stability index	2.58
TLLLRLNATDPDEGTNGQLDYSFG [PCDHGC5]	protein stability index	3.11
LIQDGNPMENLEKQLICPICLEMF [TRIM63]	protein stability index	2.97
EKERRKKQQWEIMHKHNETSQKIA [RSPH3]	protein stability index	4.91
SASVIFEGVDIKNGTEDLPYAMKP [NSDHL]	protein stability index	4.28
VQDMGQEDMLLPLAWRIVNDTYRT [CCNC]	protein stability index	2.57
ELSSLGSDSEANGFAERRIDKFGF [TBC1D10A]	protein stability index	3.83
FADEKNILHIMVKVVKGHRPELPP [RIPK4]	protein stability index	2.36
LPIVKLLAKQPGVSVNAQTLDGRT [RIPK4]	protein stability index	3.13
RHQKIHSGEKPYKCSDCGKAFLTK [ZNF649]	protein stability index	3.25
KLIRDFDEKQQEANETLAEMEEEL [VTI1B]	protein stability index	5.3
GPPGSPGRAGAVGTPGERGPPGPP [EMID1]	protein stability index	4.81
SSTSPLMEGTPTIKSKKKLLQIID [VPS39]	protein stability index	3.79
VPIDIFSEEIRFYQLGEEAMEKFR [KCNA3]	protein stability index	3.23

---

# PROTOCOL_SUMMARY: protein stability index of a GFP-peptide fusion (GPS, HEK-293T) (PSI 1-6); higher = more stable
# CONDITION_SUMMARY: treatment: DMSO; c terminus: a fixed tail appended
Each item that follows carries a reported protein stability index.

SEQUENCE_CONTENT	protein stability index
VNVEMDAAPGVDLTRVLAEMREQY [KRT15]	3.13
DENEDVNFDHFEILRAIGKGSFGK [STK32A]	4.22
EQEIQFEDFTNTLRELGHAEHEIT [PKD2L1]	5.16
ILHPELTVDSMIPAYATTRIRSQI [GDAP1]	2.52
LPDAGSGRQPALRPHVHKQTEKTT [ISL2]	5.26
YYSVETVTLLVALKVRYRERITIL [PPP2CA]	2.63
QTYQPPWKALSEFALQSDLDQPAF [ISL2]	2.96
WFPPAIMGVVSLVFLIIYYLDPSV [ARL6IP1]	2.52
LIQDGNPMENLEKQLICPICLEMF [TRIM63]	2.87
IMNEKCVVENAEKILGYLNTNVLS [SLC6A17]	2.92
ADILAGREDNSGSDVLIGDILVLL [SLC35F2]	2.48
QYQTVRYDILPLSPVSRNRLAQVK [CTDNEP1]	3.02
SASVIFEGVDIKNGTEDLPYAMKP [NSDHL]	4.39
ASCSKNCTNSPAIVRFSGQSRGVP [FBXO34]	3.68
MPRHNYHKVAPLVQSLCAKHGIEY [FADS1]	2.64
KGKAGRVDLVDESGYVSGYKHAGT [TPPP]	4.32
KIWLVVPSLLELAWEKLLAAFPNL [KLHDC10]	2.84
DIKKVNNFIREQDLYALKSVKIPV [LYSMD4]	2.38
ISYLVLSMISMGLFSIAPLIYGSM [JAGN1]	2.91
QLGQRIYQYIQSRFYRSPEVLLGT [DYRK1B]	2.23
SSAVYFAEADEPTTHFQSIPDAFW [KCNA4]	2.54
HRRFCELLPQEQRSVESSLRAQVP [CIB1]	3.63
QRQVWLLFEYPESSGPARGIAIVS [KCNA3]	2.69
KASNPDLKLWEIGKIIGGMWRDLT [SMARCE1]	3.42
LSLGALVALCWQLGLLFERHWHRP [SCNN1D]	3.09
WENRHEGVFKFLRSEAVAQLWGQK [ELF3]	2.43
VCGHTLCESCVDLLFVRGAGNCPE [MNAT1]	2.64
VSFEDPEFKSSFSQSFSLYVKYQV [ATE1]	2.99

---

# PROTOCOL_SUMMARY: protein stability index of a GFP-peptide fusion (GPS, HEK-293T) (PSI 1-6); higher = more stable
# CONDITION_SUMMARY: treatment: MLN4924 1 uM, 8 h; c terminus: a fixed tail appended
Measured protein stability index values are reported for all entries that follow.
RECORDED_ENDPOINT: protein stability index

SEQUENCE_CONTENT	REPORTED
ELVLEQQLDREAQARHQLVLTAVD [PCDHGC5]	4.1
LSPKIMQEAFLVQEVVELPVTERQ [TBC1D10A]	3.91
EIDCVDKDGNTPLHVAARYGHELL [ANKRD44]	4.05
PEYREWNPELIKPKKLLNPVKASR [FAM107A]	4.09

---

# PROTOCOL_SUMMARY: protein stability index of a GFP-peptide fusion (GPS, HEK-293T) (PSI 1-6); higher = more stable
# CONDITION_SUMMARY: treatment: MLN4924 1 uM, 8 h; c terminus: a fixed tail appended
List of protein stability index values.

SEQUENCE_CONTENT	protein stability index
LLEPEEGGRAYQALHCPTGTEYTC [TRIB3]	4.1
HRLLNMARNNNDPGRLTEALCLEV [RNF180]	3.96
SPPLSTEAHFMLQVADINDNPPTF [PCDHGA10]	3.9

---

# PROTOCOL_SUMMARY: protein stability index of a GFP-peptide fusion (GPS, HEK-293T) (PSI 1-6); higher = more stable
# CONDITION_SUMMARY: treatment: DMSO; c terminus: a fixed tail appended

SEQUENCE_CONTENT	protein stability index
NSELVQSGKSEISELRRTMQALEI [KRT17]	3.94
LFLGIHVFLVSCALPDSVLRRFVV [AUP1]	3.03
RFEEGGRRKCGQYWPLEKDSRIRF [PTPN9]	3.04
QLNGILLHLESELAQTRAEGQRQA [KRT18]	2.93

---

# PROTOCOL_SUMMARY: protein stability index of a GFP-peptide fusion (GPS, HEK-293T) (PSI 1-6); higher = more stable
# CONDITION_SUMMARY: treatment: DMSO; c terminus: a fixed tail appended
Listed next: entries and their corresponding protein stability index.

SEQUENCE_CONTENT	protein stability index
TNKMKSPETKQRKLSPLRLSVSNN [KMT2E]	4.45
ATFSGFKKEQRRLGIPKNPWLWSE [ETS2]	2.28
SGSAGQYGSDQQHHLGSGSGAGGT [MYOZ1]	4.98
PVIEELTNAGFLQTESELQELSEV [FAN1]	4.87
SNGVEMAAKFPSGSQRARVVNTDH [SDE2]	4.59
EAVKYYTLEEIQKHNHSKSTWLIL [CYB5A]	2.44
KTAATRYRQKKRAEQEALTGECKE [ATF4]	4.95
CWLNAFAEMLRFGDRMFYRDWWNS [SOAT2]	2.47
KENAAAPSPVRAPAPSPAKEERKT [PALM]	5.45
PVTQIGFEAPPLQGQAAAPASGSG [TRIM55]	5.14
THALAEWASRREAFAQRPSSAPDL [CDC25B]	3.91
SVMFRKWRDSKGKDKEYAEIIRKQ [UBE2R2]	2.98
HTEERPFKCNYCGKSFRQRPSLVI [ZNF449]	2.37
GGGGAPRGRYGPPSRRSENRVVVS [SRSF1]	4.36
WGVVSHSFPATLETQEQDVDLVQK [MMP1]	4.58
IKKKGWRRSSLVITTKIFWGGKAE [KCNAB2]	2.51
QRTHTGEKPYGCIDCGKAFSQKSC [ZNF649]	3.47
PHQREKIDKEIELHRILHHKHVVQ [PLK2]	3.48
LLQLSDACRFQEDQEMARDLVERA [TCF25]	3.64
